Hey, just so you know, these numbers are from patent US4294833A.

Test system: CaCl2-induced plasma coagulation
Experimental details: Anticoagulant activity on PRP, Hartert's thromboelastograph
Assay type: in vivo, New Zealand rabbits
Condition summary: Oryctolagus cuniculus, ip, percent increase of total time for coagulum formation (r+k) vs before treatment; 25 mg/kg intraperitoneal, rabbits; read-out: anticoagulant activity (AC)
The reader will find reported change in vivo at 25 mg/kg values listed item by item below.
Your answer is read as %, so omit the unit and give the number.

{"Smiles entry": "C=C(C)Oc1c(Cl)cc(C(=O)N(C)Cc2cccnc2)cc1C(=O)N(C)Cc1cccnc1", "change in vivo at 25 mg/kg [%]": 14.2}
{"Smiles entry": "COc1ccc(C(=O)N(C)Cc2cccnc2)cc1C(=O)N(C)Cc1cccnc1", "change in vivo at 25 mg/kg [%]": 12.5}
{"Smiles entry": "CCCN(Cc1cccnc1)C(=O)c1ccc(OC)c(C(=O)N(CCC)Cc2cccnc2)c1", "change in vivo at 25 mg/kg [%]": 15.8}

Ask: Reported change in vivo at 25 mg/kg for "C=C(C)Oc1c(Cl)cc(C(=O)N(C)Cc2ccncc2)cc1C(=O)N(C)Cc1ccncc1" : what is it?
Reply: 15.5

---

System: platelet aggregation induced by thrombin
Experimental details: Platelet aggregation inhibitory activity in vivo (Born aggregometer), thrombin-induced
Design: species or system New Zealand rabbits
Condition summary: Oryctolagus cuniculus, Platelet, ip, dose for 50% inhibition of thrombin-induced aggregation curve; rabbits, intraperitoneal, blood 2, 4 and 6 hours after injection; read-out: platelet antiaggregant activity (AAP), DI50, Thrombin
The label Y is reserved for ED50 strictly under 30 mg/kg; N covers values equal to or above it.

Please review the entries below; each comes with its answer.
{"Smiles entry": "CCCCN(Cc1cccnc1)C(=O)c1ccc(OC)c(C(=O)N(CCCC)Cc2cccnc2)c1", "Discrete label": "N"}
{"Smiles entry": "C=C(C)Oc1c(Cl)cc(C(=O)N(C)Cc2cccnc2)cc1C(=O)N(C)Cc1cccnc1", "Discrete label": "N"}

Ask: Does the reported ED50 of the following molecule sit strictly below 30 mg/kg? "COc1cc(C(=O)NCc2cccnc2)cc(C(=O)NCc2cccnc2)c1OC1CC1"
Reply: Y

Ask: Does the reported ED50 of the following molecule sit strictly below 30 mg/kg? "CCCCCOc1ccc(C(=O)NCc2cccnc2)cc1C(=O)NCc1cccnc1"
Reply: Y

Ask: Does the reported ED50 of the following molecule sit strictly below 30 mg/kg? "CCOc1ccc(C(=O)N(CCC(C)C)Cc2cccnc2)cc1C(=O)N(CCC(C)C)Cc1cccnc1"
Reply: Y

Ask: Does the reported ED50 of the following molecule sit strictly below 30 mg/kg? "C=CCOc1ccc(C(=O)NCc2ccncc2)cc1C(=O)NCc1ccncc1"
Reply: Y

Ask: Does the reported ED50 of the following molecule sit strictly below 30 mg/kg? "CCCCCCOc1ccc(C(=O)NCc2cccnc2)cc1C(=O)NCc1cccnc1"
Reply: Y

---

System: CaCl2-induced plasma coagulation
Experimental details: Anticoagulant activity on PRP, Hartert's thromboelastograph
Assay type: in vivo, New Zealand rabbits
Condition summary: Oryctolagus cuniculus, ip, percent increase of total time for coagulum formation (r+k) vs before treatment; 25 mg/kg intraperitoneal, rabbits; read-out: anticoagulant activity (AC)
The reader will find reported change in vivo at 25 mg/kg values listed item by item below.
Your answer is read as %, so omit the unit and give the number.

{"Smiles entry": "COc1c(Cl)cc(C(=O)NCc2cccnc2)cc1C(=O)NCc1cccnc1", "Value unit": "%", "Result number": 12.2}
{"Smiles entry": "COc1cc(C(=O)NCc2cccnc2)cc(C(=O)NCc2cccnc2)c1OC1CCCC1", "Value unit": "%", "Result number": 12.9}
{"Smiles entry": "COc1c(Cl)cc(C(=O)NCc2ccncc2)cc1C(=O)NCc1ccncc1", "Value unit": "%", "Result number": 13.6}
{"Smiles entry": "CCCCCOc1ccc(C(=O)NCc2cccnc2)cc1C(=O)NCc1cccnc1", "Value unit": "%", "Result number": 27.4}
{"Smiles entry": "CC(C)(C)COc1c(C(=O)NCc2cccnc2)cc(C(=O)NCc2cccnc2)cc1[N+](=O)[O-]", "Value unit": "%", "Result number": 12.6}

Ask: Reported change in vivo at 25 mg/kg for "CCC(CC)Oc1c(Cl)cc(C(=O)NCc2cccnc2)cc1C(=O)NCc1cccnc1" : what is it?
Reply: 22.3

Ask: Reported change in vivo at 25 mg/kg for "C=CCCCOc1ccc(C(=O)NCc2cccnc2)cc1C(=O)NCc1cccnc1" : what is it?
Reply: 14.5

Ask: Reported change in vivo at 25 mg/kg for "CCCCCOc1c(Cl)cc(C(=O)NCc2cccnc2)cc1C(=O)NCc1cccnc1" : what is it?
Reply: 16

---

Tested on: CaCl2-induced plasma coagulation
Experimental details: Anticoagulant activity on PRP, Hartert's thromboelastograph
Assay type: in vivo, New Zealand rabbits
Condition summary: Oryctolagus cuniculus, ip, percent increase of total time for coagulum formation (r+k) vs before treatment; 25 mg/kg intraperitoneal, rabbits; read-out: anticoagulant activity (AC)
Measurement type: change in vivo at 25 mg/kg (%)
Your answer is read as %, so omit the unit and give the number.

Past entries and their recorded results:
{"Molecule": "COc1cc(C(=O)NCc2cccnc2)cc(C(=O)NCc2cccnc2)c1OC1CC1", "change in vivo at 25 mg/kg / %": 20.1}
{"Molecule": "CC(C)(C)COc1c(Cl)cc(C(=O)NCc2cccnc2)cc1C(=O)NCc1cccnc1", "change in vivo at 25 mg/kg / %": 19.6}
{"Molecule": "CC=COc1c(Cl)cc(C(=O)N(CCC(C)C)Cc2cccnc2)cc1C(=O)N(CCC(C)C)Cc1cccnc1", "change in vivo at 25 mg/kg / %": 15.3}
{"Molecule": "CCC(C)(C)Oc1c(Cl)cc(C(=O)NCc2cccnc2)cc1C(=O)NCc1cccnc1", "change in vivo at 25 mg/kg / %": 20}
{"Molecule": "O=C(NCc1ccncc1)c1ccc(O)c(C(=O)NCc2ccncc2)c1", "change in vivo at 25 mg/kg / %": 19}
{"Molecule": "C#CCOc1ccc(C(=O)NCc2cccnc2)cc1C(=O)NCc1cccnc1", "change in vivo at 25 mg/kg / %": 13.6}
{"Molecule": "C=CCOc1c(Cl)cc(C(=O)NCc2ccncc2)cc1C(=O)NCc1ccncc1", "change in vivo at 25 mg/kg / %": 14.6}
{"Molecule": "CC=COc1c(Cl)cc(C(=O)N(Cc2cccnc2)CC(C)(C)C)cc1C(=O)N(Cc1cccnc1)CC(C)(C)C", "change in vivo at 25 mg/kg / %": 14.4}

Ask: Reported change in vivo at 25 mg/kg for "C=CCOc1c(OC)cc(C(=O)NCc2cccnc2)cc1C(=O)NCc1cccnc1" : what is it?
Reply: 14.1

Ask: Reported change in vivo at 25 mg/kg for C=CC(C)Oc1ccc(C(=O)NCc2ccncc2)cc1C(=O)NCc1ccncc1 (stereo not shown) : what is it?
Reply: 19.2

Ask: Reported change in vivo at 25 mg/kg for "CCOc1ccc(C(=O)N(CCC(C)C)Cc2cccnc2)cc1C(=O)N(CCC(C)C)Cc1cccnc1" : what is it?
Reply: 16.3

Ask: Reported change in vivo at 25 mg/kg for "CCCCCCCCOc1ccc(C(=O)NCc2cccnc2)cc1C(=O)NCc1cccnc1" : what is it?
Reply: 16.9

Ask: Reported change in vivo at 25 mg/kg for "CCCCN(Cc1cccnc1)C(=O)c1ccc(OC)c(C(=O)N(CCCC)Cc2cccnc2)c1" : what is it?
Reply: 14.5

---

Experimental details: Acute toxicity, intraperitoneal
Condition summary: mouse, in vivo, ip, male Swiss mice, intraperitoneal, 7 days observation; preliminary, by graphic interpolation; read-out: acute toxicity (LD50 / DL50)
Measurement type: LD50 at 168 h (mg/kg)
Your answer is read as mg/kg, so omit the unit and give the number.

Ask: Reported LD50 at 168 h for CCCCCOc1c(Cl)cc(C(=O)NCc2cccnc2)cc1C(=O)NCc1cccnc1 [Example 24] : what is it?
Reply: 371

Ask: Reported LD50 at 168 h for CC(C)COc1ccc(C(=O)NCc2cccnc2)cc1C(=O)NCc1cccnc1 [Example 15] : what is it?
Reply: 471

Ask: Reported LD50 at 168 h for C=CC(C)Oc1ccc(C(=O)NCc2cccnc2)cc1C(=O)NCc1cccnc1 (stereo not drawn) [Example 54] : what is it?
Reply: 355

---

Experimental details: Acute toxicity, intraperitoneal
Condition summary: mouse, in vivo, ip, male Swiss mice, intraperitoneal, 7 days observation; preliminary, by graphic interpolation; read-out: acute toxicity (LD50 / DL50)
Measurement type: LD50 at 168 h (mg/kg)
Your answer is read as mg/kg, so omit the unit and give the number.

Past entries and their recorded results:
{"Compound": "C#CCOc1ccc(C(=O)NCc2cccnc2)cc1C(=O)NCc1cccnc1 [Example 22]", "Value unit": "mg/kg", "Result number": 382}
{"Compound": "CCCN(Cc1cccnc1)C(=O)c1ccc(OC)c(C(=O)N(CCC)Cc2cccnc2)c1 [Example 41]", "Value unit": "mg/kg", "Result number": 620}
{"Compound": "COc1ccc(C(=O)N(C)Cc2cccnc2)cc1C(=O)N(C)Cc1cccnc1 [Example 39]", "Value unit": "mg/kg", "Result number": 610}

Ask: Reported LD50 at 168 h for CC=COc1c(Cl)cc(C(=O)N(Cc2cccnc2)C(C)(C)CC)cc1C(=O)N(Cc1cccnc1)C(C)(C)CC [Example 47] : what is it?
Reply: 210

Ask: Reported LD50 at 168 h for CCCOc1ccc(C(=O)NCc2cccnc2)cc1C(=O)NCc1cccnc1 [Example 1] : what is it?
Reply: 600

Ask: Reported LD50 at 168 h for C=CCCCOc1ccc(C(=O)NCc2cccnc2)cc1C(=O)NCc1cccnc1 [Example 9] : what is it?
Reply: 375

Ask: Reported LD50 at 168 h for C=CCOc1ccc(C(=O)NCc2ccncc2)cc1C(=O)NCc1ccncc1 [Example 61] : what is it?
Reply: 392
